# Test system: PC3
# protocol.text: In vitro cytotoxicity, SRB assay, PC3
# Format: cell-based, human
# measurement.setup: 48 h continuous drug exposure; dose to inhibit cell growth by 50% vs untreated cell controls
reported.endpoint: IC50 (nM)

structure.smiles: COc1cc2c(cc1OCCCOc1ccc(OCCCOc3cc4c(cc3OC)C(=O)N3CCC[C@H]3C=N4)c3c1C(=O)c1ccccc1C3=O)N=C[C@@H]1CCCN1C2=O
measured.target: PC3
reported.endpoint: IC50
readout.unit: nM
test.value: 600
//
structure.smiles: COc1cc2c(cc1OCCCCOc1ccc(OCCCCOc3cc4c(cc3OC)C(=O)N3CCC[C@H]3C=N4)c3c1C(=O)c1ccccc1C3=O)N=C[C@@H]1CCCN1C2=O
measured.target: PC3
reported.endpoint: IC50
readout.unit: nM
test.value: 7000
//
structure.smiles: COc1cc2c(cc1OCCCCCOc1ccc(OCCCCCOc3cc4c(cc3OC)C(=O)N3CCC[C@H]3C=N4)c3c1C(=O)c1ccccc1C3=O)N=C[C@@H]1CCCN1C2=O
measured.target: PC3
reported.endpoint: IC50
readout.unit: nM
test.value: 1000

###

Each item that follows carries a reported IC50.
# Tested on: SiHa
# protocol.text: In vitro cytotoxicity, SRB assay, SiHa
# Format: cell-based, human
# measurement.setup: 48 h continuous drug exposure; dose to inhibit cell growth by 50% vs untreated cell controls
# Procedure: Cytotoxicity: Compounds Va-c have been evaluated for the primary anticancer activity in selected human cancer cell lines. For each compound, dose response curves against each cell line were measured at a minimum of five concentrations at 10 fold dilutions. A protocol of 48 h continuous drug exposure was used and a sulforhodamine B (SRB) protein assay was used to estimate cell viability or growth. The concentration causing 50% cell growth inhibition compared with the control has been calculated.
reported.endpoint: IC50

structure.smiles: COc1cc2c(cc1OCCCCCOc1ccc(OCCCCCOc3cc4c(cc3OC)C(=O)N3CCC[C@H]3C=N4)c3c1C(=O)c1ccccc1C3=O)N=C[C@@H]1CCCN1C2=O
reported.endpoint: IC50
test.value: 800 nM
--
structure.smiles: COc1cc2c(cc1OCCCCOc1ccc(OCCCCOc3cc4c(cc3OC)C(=O)N3CCC[C@H]3C=N4)c3c1C(=O)c1ccccc1C3=O)N=C[C@@H]1CCCN1C2=O
reported.endpoint: IC50
test.value: 9000 nM
--
structure.smiles: COc1cc2c(cc1OCCCOc1ccc(OCCCOc3cc4c(cc3OC)C(=O)N3CCC[C@H]3C=N4)c3c1C(=O)c1ccccc1C3=O)N=C[C@@H]1CCCN1C2=O
reported.endpoint: IC50
test.value: 800 nM
